systemName: PICK1, Q9NRD5
Sequence (Q9NRD5 17-115): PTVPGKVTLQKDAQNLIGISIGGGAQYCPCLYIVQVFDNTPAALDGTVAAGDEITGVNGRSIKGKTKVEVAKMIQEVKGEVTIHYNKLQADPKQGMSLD
testSummary: holdup assay
Design: key: below the threshold = too weak to quantify, mostly under pKd 3.1 to 4
experimentalConditions: plain residues with an end cap or a label only (N-terminal biotin on a linker: ado-ado)
quantityMeasured: pKd

# annotated cases, reported pKd shown
[
  {
    "binder": "HYPASPDSWV [CTNND2, Q9UQB3]",
    "pKd": 4.17
  },
  {
    "binder": "TKEIPNCTSV [SORCS3, Q9UPU3]",
    "pKd": 4.17
  },
  {
    "binder": "RGKNRRQSIF [CDK18, Q07002]",
    "pKd": 4.17
  },
  {
    "binder": "AKADAQESRL [PLCB2, Q00722]",
    "pKd": "below the threshold"
  },
  {
    "binder": "QLKSGRDSTV [TMEM178A, Q8NBL3]",
    "pKd": 4.35
  },
  {
    "binder": "GDSSRKEYFI [GYPC, P04921]",
    "pKd": "below the threshold"
  },
  {
    "binder": "KAEEKPPSKV [SCN4B, Q8IWT1]",
    "pKd": 4.21
  },
  {
    "binder": "EFKQTSSFLV [JAM1, Q9Y624]",
    "pKd": 4.27
  },
  {
    "binder": "LLQEEWETVM [PTH1R, Q03431]",
    "pKd": 4.22
  },
  {
    "binder": "HLSTRQGTCV [ATRNL1, Q5VV63]",
    "pKd": "below the threshold"
  }
]

For each listed entry, give its pKd.
1. PSVYSRSQYV [CLDN8, P56748]
2. NNMAFETTHF [SLC5A12, Q1EHB4]
3. MLPANYVEAI [NEB, P20929]
4. EPAKETTTNV [SLC2A3, P11169]
5. TFSRRPKTRV [CD226, Q15762]

Reply:
1. below the threshold
2. below the threshold
3. 3.94
4. below the threshold
5. below the threshold

For each listed entry, give its pKd.
1. GNDPDRGTSI [GRID2, O43424]
2. PLATCDETSI [SEMA4F, O95754]
3. PEKVSNTTVV [IGSF5, Q9NSI5]
4. QKASRNESTF [POLR1D, P0DPB6]
5. QQGLLPHSSC [TYRO3, Q06418]
6. KEKASTETEC [TRPM1, Q7Z4N2]
7. AHGSTRDQSI [KCNB1, Q14721]
8. VYEVPVETKF [SLC26A3, P40879]

Reply:
["below the threshold", "below the threshold", 4.15, 4.01, "below the threshold", "below the threshold", 4.15, 4.19]

For each listed entry, give its pKd.
1. NTALVESEDL [PALLS, Q8WX93;Q8WX93-1]
2. SSSVNVSSNL [CXCR1, P25024]
3. DFKHTKSFII [JAM2, P57087]
4. SAGADSETHC [SLCO1B1, Q9Y6L6]
5. KSRPENGTVC [TMEM178B, H3BS89]

Reply:
["below the threshold", 4.12, "below the threshold", "below the threshold", "below the threshold"]

For each listed entry, give its pKd.
1. DLLGGGSDSI [TNRC6B, Q9UPQ9]
2. VISSDDLTEL [CAPN6, Q9Y6Q1]

Reply:
below the threshold
below the threshold

For each listed entry, give its pKd.
1. EKPIDSETKM [SLC1A3, P43003]
2. DYSNLRETDI [ADRA1D, P25100]

Reply:
1. below the threshold
2. 4.1

Where do the numbers come from? From paper PMC9482650.
